Target: T1, Mcl-1, Q07820
T1 chain: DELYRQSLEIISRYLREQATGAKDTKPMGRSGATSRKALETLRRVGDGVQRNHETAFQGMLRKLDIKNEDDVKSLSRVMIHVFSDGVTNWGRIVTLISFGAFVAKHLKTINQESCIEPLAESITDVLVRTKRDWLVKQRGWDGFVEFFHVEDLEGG
Test: peptide SPOT array, c-Myc-tagged receptor at 1 uM or 100 nM, anti-c-Myc-Cy3
Entries whose SPOT signal as a fraction of Bim BH3's signal on the same receptor and array is below 0.3 take t; entries at or above 0.3 take f.

A selection of reference data follows.
AFGLGDLPNLLGLVLDQLGDTERKRR [ADAMTS14] :: t
TAGLRPGARLLRVCLQTLPSLRPEAA [SIPA1] :: f
SHFVACMTAILNQMGDQHYSFYIETF [DOCK2] :: t

Identify whether the binder IFNGSNWIMLIYKGGDEYDNHCGKEQ [M6PR] records SPOT signal as a fraction of Bim BH3's signal on the same receptor and array below 0.3.
t

Take the binder TVATRRLSGFLRTLADRLEGTKELLS [MINA] and say whether its SPOT signal as a fraction of Bim BH3's signal on the same receptor and array is less than 0.3.
f

Strictly below 0.3: is that where SPOT signal as a fraction of Bim BH3's signal on the same receptor and array of AELRLFLAQRDRWLCDSCPASRATCV [NBEAL2] sits?
f

The values you see were collected from paper PMC4072508.
